Tested system: DP2 receptor (Homo sapiens)
Construct: host or cells: HEK293T (transient)
Sequence (Q9Y5Y4 whole entry): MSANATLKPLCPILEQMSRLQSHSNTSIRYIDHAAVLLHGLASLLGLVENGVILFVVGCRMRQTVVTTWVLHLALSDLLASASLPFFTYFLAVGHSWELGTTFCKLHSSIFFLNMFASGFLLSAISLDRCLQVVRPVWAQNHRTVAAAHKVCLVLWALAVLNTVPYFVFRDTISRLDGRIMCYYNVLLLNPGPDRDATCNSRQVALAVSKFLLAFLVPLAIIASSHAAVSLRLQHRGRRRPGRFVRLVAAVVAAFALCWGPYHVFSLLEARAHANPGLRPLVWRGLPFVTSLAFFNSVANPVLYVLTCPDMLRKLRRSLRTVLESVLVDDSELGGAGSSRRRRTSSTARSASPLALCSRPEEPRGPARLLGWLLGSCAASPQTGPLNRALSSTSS
Method summary: BRET-based G protein activation, wildtype DP2 receptor + Gαo biosensor in HEK293T cells
Format: cell-based
Condition info: intact HEK293T cells
Observed property: EC50

INSERT INTO assay_data (molecule, tested_system, observed_property, measured_result) VALUES
  ('CCCCC[C@H](O)/C=C/[C@H]1C(=O)C[C@H](O)[C@@H]1C/C=C\CCCC(=O)O [PGD2]', 'DP2 receptor (Homo sapiens)', 'EC50', '0.562 nM');

====

Tested system: S1P3 receptor (Homo sapiens)
Sequence (Q99500 whole entry): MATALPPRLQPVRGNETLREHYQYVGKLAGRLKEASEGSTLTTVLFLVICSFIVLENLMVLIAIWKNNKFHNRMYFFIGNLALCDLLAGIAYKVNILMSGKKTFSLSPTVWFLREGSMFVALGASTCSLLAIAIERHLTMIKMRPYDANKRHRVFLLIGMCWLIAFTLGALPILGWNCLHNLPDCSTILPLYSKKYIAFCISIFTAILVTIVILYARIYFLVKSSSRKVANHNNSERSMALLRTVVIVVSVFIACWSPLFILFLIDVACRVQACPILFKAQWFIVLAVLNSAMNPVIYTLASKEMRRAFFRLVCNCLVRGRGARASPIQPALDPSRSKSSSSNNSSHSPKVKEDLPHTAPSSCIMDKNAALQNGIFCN
Method summary: BRET-based G protein activation, wildtype S1P3 receptor + Gαq biosensor in HEK293T cells
Format: cell-based
Condition info: intact HEK293T cells
Description: […] Afterward, the cells were washed five times for single-cell FRET measurements or three times for BRET measurements with internal buffer. Concentration-response curves were fitted in GraphPad Prism 8 using nonlinear regression (log(agonist) vs. response - variable slope (four parameters)) with the hillslope set to 1, the bottom constrained to 0 and the top to 1 using the following equation: […]
Observed property: EC50 (µM)

INSERT INTO assay_data (compound, tested_system, output_unit, measured_result) VALUES
  ('CCCCCCCCCCCCC/C=C/[C@@H](O)[C@@H](N)COP(=O)(O)O [S1P, Sphingosine-1-phosphate]', 'S1P3 receptor (Homo sapiens)', 'µM', 0.0282);

====

Tested system: DP2 receptor (Homo sapiens)
Construct: host or cells: HEK293T (transient)
Method summary: BRET-based G protein activation, wildtype DP2 receptor + Gαo biosensor in HEK293T cells
Assay type: cell-based
Condition info: saponin-permeabilized cells with 1 µM GTP
pEC50: −log10 of the molar value.
Observed property: pEC50

INSERT INTO assay_data (molecular_string, observed_property, measured_result) VALUES
  ('CCCCC[C@H](O)/C=C/[C@H]1C(=O)C[C@H](O)[C@@H]1C/C=C\CCCC(=O)O', 'pEC50', 7.69);
